Reported Ki values for the following compounds.
Experimental System: UniProt P04150
Assay Procedure: Inhibition of human glucocorticoid receptor
Value and unit, in that order.

Compound	Parameter	Result
C#C[C@]1(O)CC[C@H]2[C@@H]3CCC4=CC(=O)CCC4=C3[C@@H](c3ccc(N(C)CCOC4CC[C@@]5(C)[C@H](CC[C@@H]6[C@@H]5C[C@H](O)[C@]5(C)[C@@H]([C@H](C)CCC(=O)O)CC[C@@H]65)C4)cc3)C[C@@]21C (some centres not stated)	Ki	160 pM

Query string: Please look up its Ki: C#C[C@]1(O)CC[C@H]2[C@@H]3CCC4=CC(=O)CCC4=C3[C@@H](c3ccc(N(C)C(=O)CNC(=O)O[C@@H]4C[C@@H]5CC(O)CC[C@]5(C)[C@H]5C[C@H](O)[C@]6(C)[C@@H]([C@H](C)CCC(=O)O)CC[C@H]6[C@H]45)cc3)C[C@@]21C (some centres not stated)
Result string: 1100 pM

* * *

Experimental System: Glucocorticoid receptor (Homo sapiens)
Sequence (P04150 whole entry): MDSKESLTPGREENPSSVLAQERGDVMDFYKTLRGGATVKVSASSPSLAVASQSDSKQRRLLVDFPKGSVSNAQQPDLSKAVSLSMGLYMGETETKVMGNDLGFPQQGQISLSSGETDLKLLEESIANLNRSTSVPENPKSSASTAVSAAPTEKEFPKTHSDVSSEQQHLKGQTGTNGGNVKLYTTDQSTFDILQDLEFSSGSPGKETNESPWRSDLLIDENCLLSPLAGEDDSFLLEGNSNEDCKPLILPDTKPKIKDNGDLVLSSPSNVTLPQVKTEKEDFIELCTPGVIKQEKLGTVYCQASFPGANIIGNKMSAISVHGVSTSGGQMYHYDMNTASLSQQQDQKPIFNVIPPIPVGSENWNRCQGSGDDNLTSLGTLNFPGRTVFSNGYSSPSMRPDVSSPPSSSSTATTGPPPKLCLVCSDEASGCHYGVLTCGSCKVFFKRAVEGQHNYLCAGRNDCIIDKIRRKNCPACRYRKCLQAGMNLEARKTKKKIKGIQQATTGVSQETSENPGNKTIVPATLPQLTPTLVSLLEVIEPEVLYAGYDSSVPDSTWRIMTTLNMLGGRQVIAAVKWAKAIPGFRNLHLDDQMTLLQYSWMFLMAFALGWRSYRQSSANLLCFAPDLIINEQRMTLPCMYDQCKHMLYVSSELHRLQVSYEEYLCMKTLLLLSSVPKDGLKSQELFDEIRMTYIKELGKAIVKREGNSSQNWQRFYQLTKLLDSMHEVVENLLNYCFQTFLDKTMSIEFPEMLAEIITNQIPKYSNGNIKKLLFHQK
Assay Procedure: Inhibition of human glucocorticoid receptor
# met = Ki below 0.4 nM (exclusive); not met = Ki at/above 0.4 nM

Molecule	Experimental System	Classification
C#C[C@]1(O)CC[C@H]2[C@@H]3CCC4=CC(=O)CCC4=C3[C@@H](c3ccc(N(C)CCNC(=O)N(C)C4CC[C@@]5(C)[C@@H](C4)C[C@@H](O)[C@@H]4[C@@H]5C[C@H](O)[C@]5(C)[C@@H]([C@H](C)CCC(=O)O)CC[C@@H]45)cc3)C[C@@]21C (some centres not stated)	Glucocorticoid receptor (Homo sapiens)	met
C#C[C@]1(O)CC[C@H]2[C@@H]3CCC4=CC(=O)CCC4=C3[C@@H](c3ccc(N(C)CCOC4CC[C@@]5(C)[C@@H](C4)C[C@@H](O)[C@@H]4[C@@H]5C[C@H](O)[C@]5(C)[C@@H]([C@H](C)CCC(=O)NCCS(=O)(=O)O)CC[C@@H]45)cc3)C[C@@]21C (some centres not stated)	Glucocorticoid receptor (Homo sapiens)	met
C#C[C@]1(O)CC[C@H]2[C@@H]3CCC4=CC(=O)CCC4=C3[C@@H](c3ccc(N(C)CCC[C@H]4[C@H](O)CC[C@@]5(C)[C@@H]4C[C@@H](O)[C@@H]4[C@@H]5C[C@H](O)[C@]5(C)[C@@H]([C@H](C)CCC(=O)O)CC[C@@H]45)cc3)C[C@@]21C	Glucocorticoid receptor (Homo sapiens)	not met
C#C[C@]1(O)CC[C@H]2[C@@H]3CCC4=CC(=O)CCC4=C3[C@@H](c3ccc(N(C)C(=O)CNC(=O)O[C@H]4C[C@H]5[C@@H]([C@H](O)C[C@@H]6C[C@H](O)CC[C@@]65C)[C@@H]5CC[C@H]([C@H](C)CCC(=O)O)[C@@]45C)cc3)C[C@@]21C	Glucocorticoid receptor (Homo sapiens)	not met

Query string: Ki strictly < 0.4 nM for this molecule? C#C[C@]1(O)CC[C@H]2[C@@H]3CCC4=CC(=O)CCC4=C3[C@@H](c3ccc(N(C)CCOC4CC[C@@]5(C)[C@@H](C4)C[C@@H](O)[C@@H]4[C@@H]5C[C@H](O)[C@]5(C)[C@@H]([C@H](C)CCC(=O)NCC(=O)O)CC[C@@H]45)cc3)C[C@@]21C (some centres not stated)
Result string: not met

Query string: Ki strictly < 0.4 nM for this molecule? C#C[C@]1(O)CC[C@H]2[C@@H]3CCC4=CC(=O)CCC4=C3[C@@H](c3ccc(N(C)CCCS(=O)(=O)N(C)C4CC[C@@]5(C)[C@@H](C4)C[C@@H](O)[C@@H]4[C@@H]5C[C@H](O)[C@]5(C)[C@@H]([C@H](C)CCC(=O)O)CC[C@@H]45)cc3)C[C@@]21C (some centres not stated)
Result string: not met

Query string: Ki strictly < 0.4 nM for this molecule? C#C[C@]1(O)CC[C@H]2[C@@H]3CCC4=CC(=O)CCC4=C3[C@@H](c3ccc(N(C)CCOC4CC[C@@]5(C)[C@@H](C4)C[C@@H](O)[C@@H]4[C@@H]5C[C@H](O)[C@]5(C)[C@@H]([C@H](C)CCC(=O)O)CC[C@@H]45)cc3)C[C@@]21C (stereo in doubt; form 1)
Result string: not met
